Cited source for all entries: paper PMC2978023

TEST SYSTEM: recombinant purified αM integrin subunit (UniProt P11215 17-1152)
MEASUREMENT NOTES: ELISA
pKd: −log10 of the molar value. Ends that are not written are not given here.
RECORDED METRIC: pKd

BINDER: KIIPFNRLTIG (also: biotin label, position not given here) [peptide P2-C, Fgγ(385)KIIPFNRLTIG(395)]
VALUE REPORTED: 7.00
